Tested on: MS2 coat protein
Test: apparent KD of MS2 coat protein; designed switch direction (-1 OFF switch, 1 ON switch): 1; higher = weaker reporter binding
Details: input ligand: FMN 200 uM
Please use Satisfied whenever apparent KD of MS2 coat protein is not below 100 nM, and Not satisfied whenever it is.

Ask: Threshold query (apparent KD of MS2 coat protein >= 100 nM) on GGUAUCGACGCAGGAUAUGCUAUCCUUUGGGUAGCAGAAGGGUGGACAUGAGGAUCACCCAUGUGGGUGCCAGGGCGUGAGCCC [JL SSNG1 1.83] (Eterna round: R96, puzzle: Same State NG 1)
Result: Satisfied

Ask: Exam item: decide whether the reported apparent KD of MS2 coat protein for GCCGGCUGGUGAGGAUAUGGCACCUUAUUGGUGCCAGAAGGCAUGUCAAUUGACAUGAGGAUCACCCAUGUAUUAUGGUUGGCG [salish99_SSNG1_r04_606] (Eterna round: R96, puzzle: Same State NG 1) is at least 100 nM.
Result: Satisfied

Ask: Form field: apparent KD of MS2 coat protein at least 100 nM? Entry: GCCAACACAUGAGGAUAUGGCACCUUAUUGGUGCCAGAAGGCAUGUGAAUUCACAUGAGGAUCACCCAUGUAUUAUAGUUGGCA [Fiskers NG1ss - 19] (Eterna round: R96, puzzle: Same State NG 1)
Result: Not satisfied

Ask: Does the sequence GUGCGGGUGCCACAGGAUAUACGUGGAUCGACAUGAGGAUCACCCAUGUAUAUCCUAAUAAUUGCGUAGAAGGGUGGUCAGCCGU [Enbebiqu] (Eterna round: R96, puzzle: Same State 2) have recorded apparent KD of MS2 coat protein that is 100 nM or more?
Result: Satisfied

Ask: Evaluate GCUAGGAUAUGACCAGGAUCACCGGUUAGAAGGAGCGAAAGCUAGGAUAUGACCAGGAUCACCGGUUAGAAGGAGCUGUCCUCC [pwkr ssNG3 DX 2xF5 +2xFMN.12] (Eterna round: R96, puzzle: Same State NG 3) : apparent KD of MS2 coat protein at minimum 100 nM?
Result: Not satisfied

###

Tested on: MS2 coat protein
Assay: apparent KD of MS2 coat protein; designed switch direction (-1 OFF switch, 1 ON switch): -1; higher = weaker reporter binding
Details: input ligand: none
What apparent KD of MS2 coat protein was measured for each of the following?

Ask: Value lookup for apparent KD of MS2 coat protein; key = UUUGUUUGGUAGGAUAUCAACUAAGAGAGUGGCUGAGAAGGACCAACAUGAGGAUCACCCAUGUCGGUUCCGUU [EX6 C.15] (Eterna round: R97, puzzle: Exclusion 6)
Result: 14.8 nM

Ask: Recorded apparent KD of MS2 coat protein for AGGUGCUUCAGGAGACAUGAGGAUCACCCAUGUUGAGUUAGCGAGGAUAUCGGUAACCCAUGUGAUGAGAAGGCGCAAACCAAU [Ex NG3 #46] (Eterna round: R96, puzzle: Exclusion NG 3) , please?
Result: 74.1 nM

Ask: Suppose we examine the sequence UCUUCACAUGAGGAUCACCCAUGUGAGGAUAUGGUUUCGCUGGCCGUAGCCAGUGGAACCAGAAGGCGCAUGAU [Mat - Exclusion 1 - JL Mod - D7] (Eterna round: R97, puzzle: Exclusion 1) ; what apparent KD of MS2 coat protein value has been reported?
Result: 26.1 nM
